For each record, write down the corresponding EC50, CreLuc reporter, 0.5% hP.
Target: T1, human neuropeptide Y2 receptor (human, UniProt P49146 1-381)
T1 sequence (looked up): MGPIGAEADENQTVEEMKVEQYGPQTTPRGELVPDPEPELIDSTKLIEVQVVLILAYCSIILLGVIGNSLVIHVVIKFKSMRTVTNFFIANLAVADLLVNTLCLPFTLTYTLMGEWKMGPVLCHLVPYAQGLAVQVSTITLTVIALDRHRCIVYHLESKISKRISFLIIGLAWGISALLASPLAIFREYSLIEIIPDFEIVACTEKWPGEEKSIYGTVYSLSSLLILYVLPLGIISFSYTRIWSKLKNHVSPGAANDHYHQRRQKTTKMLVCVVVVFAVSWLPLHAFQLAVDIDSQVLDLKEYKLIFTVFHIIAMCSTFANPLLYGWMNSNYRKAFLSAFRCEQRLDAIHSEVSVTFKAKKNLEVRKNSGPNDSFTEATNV
Assay: cell-based or functional assay
*1 amine or outer side, *2 acyl side, *3 side chain or, on linkers, in order; H or OH if unused. Where no end group is shown, it is not given here. Side-chain parts run from the residue outwards. [ ]: non-standard residue; d: D form. The star is where a group is joined. γDab = gamma-linked diaminobutyric acid unit, O=C([C@H](CCN[*:1])N[*:3])[*:2]; C20 diacid = O=C(O)CCCCCCCCCCCCCCCCCCC(=O)*; C18 diacid = O=C(O)CCCCCCCCCCCCCCCCC(=O)*; γGlu = O=C(O)[C@H](CCC(=O)[*:2])N[*:1]; AEEA = NCCOCCOCC(=O)O; Aib = CC(C)(N)C(=O)O
Note: unit nM is implicit; provide only the numeric part.

Task: Bench note: what EC50, CreLuc reporter, 0.5% hP did YXEGTFTSDYSIXLEKQAEXAFVRHLINKXTRQRY (Aib at 2, 20, 30; aMeL at 13; Lys29 epsilon-amino: C20DA-gGlu-gGlu-gGlu-gGlu-gGlu-gGlu-eLys; C-terminal amide) [Compound 103] show?
Result: 25.9

Task: Entry YXEGTFTSDYSIXLEKQAEXAFVRHLINKXTRQRY (Aib at 2, 13, 20, 30; Lys29 epsilon-amino: C20DA-gGlu-gGlu-gGlu-gGlu-gGlu-gGlu-eLys; C-terminal amide) [Compound 104] please
Result: 17.5

Task: And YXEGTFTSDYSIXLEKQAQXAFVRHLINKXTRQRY (Aib at 2, 13, 20, 30; Lys29 epsilon-amino: C18DA-TRX-gGlu-gGlu-gGlu-gGlu-gGlu-gGlu-eLys; C-terminal amide) [Compound 137] ?
Result: 20.1

Task: Now consider Y[Aib]EGTFTSDYSI[Aib]LEKQAQ[Aib]AFVRHLINK([γDab-γGlu-γGlu-γGlu-γGlu-γGlu-γGlu-C18 diacid])[Aib]TRQRY-NH2 [Compound 120] .
Result: 23.9

Task: Next: YXEGTFTSDYSAXLEKQAQXAFVRHLINKXTRQRY (Aib at 2, 13, 20, 30; Lys29 epsilon-amino: C18DA-gGlu-gGlu-gGlu-gGlu-gGlu-gGlu-eLys; C-terminal amide) [Compound 156]
Result: 16.3

Task: Try Y[Aib]EGTFTSDYSI[Aib]LEKQAQ[Aib]AFVRHLINK([AEEA-γGlu-γGlu-γGlu-γGlu-γGlu-γGlu-C20 diacid])[Aib]TRQRY-NH2 [Compound 99] next.
Result: 16.7

// data source = patent US20250382344A1
